Source listed as BigSolDB 2.1.

Conditions: in DMF, 278.15 K

# Sample smiles, solubility (mole fraction)
records = [
    ("CC1=NNC(=O)N(/N=C/c2cccnc2)C1", 0.0031),
]

----------
Details: in NMP, 293.15 K

# Sample smiles, solubility (mole fraction)
measured = [
    ("CC1=NNC(=O)N(/N=C/c2cccnc2)C1", 0.00255),
]

----------
Conditions: in 1,4-dioxane, 318.15 K

# Sample smiles, solubility (mole fraction)
rows = [
    ("CC1=NNC(=O)N(/N=C/c2cccnc2)C1", 0.0011),
]

----------
Details: in isopropanol, 288.15 K

# Sample smiles, solubility (mole fraction)
measured = [
    ("CC1=NNC(=O)N(/N=C/c2cccnc2)C1", 0.00028),
]
